From various publications: IC50 for PIK3CA (human).
Only the number, expressed in nM, is required.

Q. // query IC50 value for entry CNC(=O)C(C)Cn1cnc2ccc(-c3cnc(OC)c(NS(=O)(=O)c4ccc(F)cc4)c3)cc2c1=O (single isomer, unassigned)
A. 8

Q. // query IC50 value for entry COCC(C)N(C)[C@H]1CC[C@H](CNc2nc(N3CCOC[C@H]3C)cc(-n3c(C(F)F)nc4ccccc43)n2)CC1 (stereo partly shown)
A. 490

Q. // query IC50 value for entry CN(C)CCn1cc(C(=O)Nc2cccnc2)c2c(N3CCOCC3)nc(-c3ccc(NC(=O)Nc4cccnc4)cc3)nc21
A. 16

* * *

From various publications: pIC50 for PIK3CA (human) (UniProt P42336).
pIC50: −log10 of the molar value.

Q. Short answer please: pIC50, PIK3CA (human) (UniProt P42336), entry CC(=O)N1CCC(Cc2nnc3cnc4ccc(-c5ccc6nc(N)sc6c5)cc4n23)CC1
A. > 7.00

Q. Short answer please: pIC50, PIK3CA (human) (UniProt P42336), entry Nc1nc2cc(-c3ccc4ncc(C(=O)N5CC(N6CC[C@@H](O)C6)C5)n4c3)ccc2o1
A. > 7.00

Q. Short answer please: pIC50, PIK3CA (human) (UniProt P42336), entry C[C@H](Nc1ncnc2ccnn12)c1cc2cccc(Cl)c2c(C(=O)N2CCOCC2)n1
A. < 5.00

Q. Short answer please: pIC50, PIK3CA (human) (UniProt P42336), entry c1ccc(-c2n[nH]cc2-c2ccc3nccc(-c4ccncc4)c3n2)cc1
A. 7.51

* * *

From various publications: IC50 for PIK3CA (human) (UniProt P42336).

Q. // query IC50 value for entry Cc1nc2c(-c3ccc4c(c3)CN(c3ncnc5c3CC(C)(C)CC5)CCO4)cncc2[nH]1
A. ≥ 2000 nM

Q. // query IC50 value for entry Nc1nc2cc(-c3ccc4nccc(-c5cn[nH]c5)c4c3)ccc2o1
A. < 100 nM

Q. // query IC50 value for entry C[C@H](Nc1ncnc2scnc12)c1cc2cccc(Cl)c2c(C(=O)NC2CCOCC2)n1
A. > 10000 nM

Q. // query IC50 value for entry CCC(Nc1ncnc2[nH]cnc12)c1cc2cccc(C)c2c(=O)n1-c1ccccc1 (centres unmarked)
A. > 10000 nM

Q. // query IC50 value for entry Nc1nc2cc(-c3ccc4ncc(N[C@H]5CC[C@H](O)CC5)nc4c3)ccc2o1
A. < 100 nM

Q. // query IC50 value for entry Cc1nc2ccc(-c3ccc4c(c3)CN(C(=O)N(C)[C@H](C)c3ccccc3)CCO4)cc2[nH]1
A. 75 to 200 nM

Q. // query IC50 value for entry CC(C)(C#N)c1ccc(-c2nnc3cnc4ccc(-c5cnc(N)c(C(F)(F)F)c5)cc4n23)cn1
A. < 100 nM

Q. // query IC50 value for entry C=Cc1nn(Cc2cc3cccc(C)c3c(=O)n2-c2ccccc2C)c2ncnc(N)c12
A. > 10000 nM

* * *

From various publications: IC50 for PIK3CA (human) (UniProt P42336).
The threshold is 2 nM. Values of IC50 beneath it are tagged label 1; values meeting or exceeding it are tagged label 0.

Q. Strictly below 2 nM: is that where IC50 of Nc1nc2cc(-c3ccc4nnc(C(=O)N5CCOCC5)n4c3)ccc2o1 sits?
A. label 0

Q. Strictly below 2 nM: is that where IC50 of CC(Nc1ccc2c(c1)OCCn1cc(N3C(=O)OC(C)[C@H]3C(F)F)nc1-2)C(N)=O (stereo in doubt) sits?
A. label 1

Q. Strictly below 2 nM: is that where IC50 of CC(=O)c1ccc(-c2ccc3ncnc(Nc4ccc(CC#N)cc4)c3c2)cc1 sits?
A. label 0

Q. Strictly below 2 nM: is that where IC50 of Nc1ccc(CNc2cccc(Oc3cc(=O)[nH]c4ccccc34)c2)cn1 sits?
A. label 0

Q. Strictly below 2 nM: is that where IC50 of CNc1nc(C)c2cc(-c3cnc(OC)c(NS(=O)(=O)c4ccc(F)cc4F)c3)cc(OCC3CCOCC3)c2n1 sits?
A. label 0

Q. Strictly below 2 nM: is that where IC50 of CN(C)C(=O)C1CCN(c2ccnc3c2c(/C=C2\Oc4ccc(NC(=O)Nc5ccc(OC6CCOCC6)nc5)cc4C2=O)cn3C)CC1 sits?
A. label 0
